TEST TARGET: rat MCH1 receptor (Rattus norvegicus)
Construct: expressed in transfected cells; host or cells: Human embryonic kidney Peak rapid 293 cells (Peakr293), transient, calcium phosphate; membranes
TEST DESCRIPTION: Radioligand binding assay at cloned rat MCH1 receptor ([3H]Compound A displacement)
CONDITION PARAMETERS: KI, cloned rat MCH1, membranes of transfected Peakr293 cells, 0.08 nM [3H]Compound A, 25° C., 90 minutes
hey, just use t if measured Ki is less than 400 nM, otherwise f

Example cases with answers are listed next.
For this compound, is Ki lower than 400 nM? O=C(NCCCN1CCC2(C=Cc3ccccc32)CC1)C(c1ccc(F)cc1)c1ccc(F)cc1
t

Quick check: Ki of O=C(NCCCCN1CCC2(CCc3ccccc32)CC1)c1ccc(Oc2cc(Cl)cc(Cl)c2)o1 under 400 nM?
f

Quick check: Ki of O=C(NCCCCN1CCC2(CCc3ccccc32)CC1)c1sc2ccccc2c1Cl under 400 nM?
f

Further cases:
Please state whether Ki is below 400 nM for S=C(NCCCCCCN1CCC2(CCc3ccccc32)CC1)Nc1cccc2ccccc12
f

In plain terms, does O=C(NCCCCCN1CCC2(C=Cc3ccccc32)CC1)C(c1ccccc1)c1ccccc1 come in under 400 nM for Ki?
t

Given O=C(NCCCN1CCC2(CC1)OCc1ccccc12)C(c1ccccc1)c1ccccc1 , is recorded Ki strictly lower than 400 nM?
t

###

TEST TARGET: rat MCH1 receptor (Rattus norvegicus, UniProt P97639)
Construct: expressed in transfected cells; host or cells: Human embryonic kidney Peak rapid 293 cells (Peakr293), transient, calcium phosphate; membranes
Sequence (P97639 whole entry): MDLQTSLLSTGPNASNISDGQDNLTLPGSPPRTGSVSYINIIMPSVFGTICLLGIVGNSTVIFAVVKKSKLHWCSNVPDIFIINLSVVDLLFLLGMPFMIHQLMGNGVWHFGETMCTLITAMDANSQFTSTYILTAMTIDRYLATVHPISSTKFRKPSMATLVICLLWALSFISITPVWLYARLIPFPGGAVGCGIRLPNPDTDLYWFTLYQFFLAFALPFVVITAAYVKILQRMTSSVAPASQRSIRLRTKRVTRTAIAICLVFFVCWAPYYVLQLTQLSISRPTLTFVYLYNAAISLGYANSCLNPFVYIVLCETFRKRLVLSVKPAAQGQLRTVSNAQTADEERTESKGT
TEST DESCRIPTION: Radioligand binding assay at cloned rat MCH1 receptor ([3H]Compound A displacement)
CONDITION PARAMETERS: KI, cloned rat MCH1, membranes of transfected Peakr293 cells, 0.08 nM [3H]Compound A, 25° C., 90 minutes
READOUT KIND: pKi
// returns pKi (minus log10 of molar concentration), number only

These recorded examples may help you get a feel for the data.
Query O=C(NCCCN1CCC2(CCc3ccccc32)CC1)C1(c2ccc(Cl)cc2)CCC1 yields pKi of 6.76

The recorded pKi for entry Cc1ccc(C(C(=O)NCCCN2CCC3(CC2)C(=O)CCc2ccccc23)c2ccc(C)cc2)cc1 equals 6.37

Record summary for O=C(Cc1ccc(F)cc1)NCCCCN1CCC2(CCc3ccccc32)CC1 : reported pKi = 6.16

API: the following record is the query input.
The compound CC(C)(C)c1cc(C(=O)NCCCCCCN2CCC3(CCc4ccccc43)CC2)n(Cc2ccccc2)n1 showed pKi equal to 6.29
